Reference source for all entries: patent US20260217701A1

Test: Dog PK study #2 (Compound A IV, HPBCD formulation)
Assay type: in vivo, beagle dogs
Settings: beagle, dog, plasma, iv, 1 mg/kg, IV 1 mg/kg, HPBCD formulation, 0.083 h; mean; read-out: Average plasma concentration
quantity_name: concentration at 0.083 h (ng/mL)
// return numeric value only (unit: ng/mL, not printed)

Summary for this molecule, Cn1cc(-c2ccccc2)c(-c2cn(C)c(=O)c3[nH]c(-c4cnn(C(F)(F)F)c4)cc23)cc1=O : concentration at 0.083 h is 446

###

Test: Dog PK study #4 (Compound A PO daily 14 days, 1/3/10 mg/kg; toxicokinetics, platelet counts)
Assay type: in vivo, beagle dogs
Settings: beagle, dog, plasma, oral; after daily administration for 14 days, 3 mg/kg, Male, 2 h
quantity_name: concentration at 2 h (ng/mL)
# value in ng/mL; strip the unit string

Notebook: Cn1cc(-c2ccccc2)c(-c2cn(C)c(=O)c3[nH]c(-c4cnn(C(F)(F)F)c4)cc23)cc1=O , concentration at 2 h read as 265

###

Assay: Rat PK study #2 (Compound A PO 5 mg/kg, DMSO/PEG-400/water)
Format: in vivo, SD rats
Settings: male, Sprague-Dawley, rat, plasma, po, 5 mg/kg, SD rats, PO 5 mg/kg, DMSO/PEG-400/Milli-Q water formulation, mean of 3 animals; read-out: Cmax
quantity_name: Cmax

// recorded Cmax for Cn1cc(-c2ccccc2)c(-c2cn(C)c(=O)c3[nH]c(-c4cnn(C(F)(F)F)c4)cc23)cc1=O [Compound A] : 415 ng/mL

###

Target: BRD4 BD2 (Homo sapiens)
Construct: HEK293 cells were transfected using NanoLuc-BRD4-BD1 or NanoLuc-BRD4-BD2 fusion vectors
Assay: NanoBRET bromodomain assay, NanoLuc-BRD4-BD2 in HEK293 cells
Type: binding
Conditions: IC50 BD1/IC50 BD2; qualitative if an IC50 is at the upper limit
quantity_name: Fold Selectivity BRD4 BD1/BD2

smiles_input: CCCn1cc(-c2cc3c(-c4cc(=O)n(C)cc4Oc4c(C)cccc4C)cn(C)c(=O)c3[nH]2)cn1
value_measured: xxxx (Fold >1000)
//
smiles_input: CSCCn1cc(-c2ccccc2)c(-c2cn(C)c(=O)c3[nH]c(-c4cnn(C(F)(F)F)c4)cc23)cc1=O
value_measured: xxxx (Fold >1000)
//
smiles_input: Cn1cc(-c2cc(=O)n(C3CC3)cc2-c2ccccc2)c2cc(-c3ccc(F)cc3F)[nH]c2c1=O
value_measured: xxxx (Fold >1000)

###

Experiment: Dog PK study #4 (Compound A PO daily 14 days, 1/3/10 mg/kg; toxicokinetics, platelet counts)
Type: in vivo, beagle dogs
Settings: beagle, dog, plasma, oral; after daily administration for 14 days, 3 mg/kg, Female, 0.5 h
quantity_name: concentration at 0.5 h
Dear colleague, please send the value followed by its unit.

What the record says about Cn1cc(-c2ccccc2)c(-c2cn(C)c(=O)c3[nH]c(-c4cnn(C(F)(F)F)c4)cc23)cc1=O : concentration at 0.5 h is 152 ng/mL

###

Test: Dog PK study #3 (Compound A PO once daily 5 days, 5/10/20 mg/kg; PK, body weight, hematology)
Assay type: in vivo, beagle dogs
Conditions: male, beagle, dog, plasma, po, 20 mg/kg, Day 1, 20 mg/kg dose PO; individual animals; read-out: MRT0-last
quantity_name: MRT last (h)
Number only, in h; omit the unit.

Lookup result for Cn1cc(-c2ccccc2)c(-c2cn(C)c(=O)c3[nH]c(-c4cnn(C(F)(F)F)c4)cc23)cc1=O ; measured MRT last: 8.19

###

Experiment: Rat PK study #3 (ABBV-744 IV 1 mg/kg and PO 5 mg/kg)
Format: in vivo, SD rats
Conditions: male, Sprague-Dawley, rat, plasma, iv, 1 mg/kg, SD rats, IV 1 mg/kg, DMSO/PEG-400/Milli-Q water formulation, 8 h, mean of 3 animals
quantity_name: concentration at 8 h (ng/mL)
Reply numerically in ng/mL, unit not repeated.

// recorded concentration at 8 h for CCNC(=O)c1cc2c(-c3cc(C(C)(C)O)ccc3Oc3c(C)cc(F)cc3C)cn(C)c(=O)c2[nH]1 : 15.3

###

Assay: Rat PK study #4 (Compound A PO 0.2 and 1.0 mg/kg, propylene glycol formulation)
Assay type: in vivo, Lewis rats
Details: male, Lewis, rat, plasma, po, 1 mg/kg, Lewis rats, PO 1 mg/kg, propylene glycol-based formulation, 0.25 h, mean of 3 animals
quantity_name: concentration at 0.25 h (ng/mL)
Give your result in ng/mL as a bare value.

compound Cn1cc(-c2ccccc2)c(-c2cn(C)c(=O)c3[nH]c(-c4cnn(C(F)(F)F)c4)cc23)cc1=O , concentration at 0.25 h observed: 4.74

###

Test: Dog PK study #2 (Compound A IV, HPBCD formulation)
Format: in vivo, beagle dogs
Details: beagle, dog, plasma, iv, 1 mg/kg, IV 1 mg/kg, HPBCD formulation; mean; read-out: Vss—obs
quantity_name: Vd (L/kg)
Numeric only. Scale: L/kg

Form field Vd, entry Cn1cc(-c2ccccc2)c(-c2cn(C)c(=O)c3[nH]c(-c4cnn(C(F)(F)F)c4)cc23)cc1=O : 3.77

###

Test: CIA study: pharmacokinetics / plasma concentration after oral administration
Assay type: in vivo, Lewis rats
Conditions: Lewis, rat, plasma, po, 3 mg/kg, CIA-induced animals, day 0, 3 mg/kg, average; read-out: MRTInf—obs (Mean)
quantity_name: MRT inf
Give the number first and the unit second.

Lookup result for Cn1cc(-c2ccccc2)c(-c2cn(C)c(=O)c3[nH]c(-c4cnn(C(F)(F)F)c4)cc23)cc1=O ; measured MRT inf: 12.2 h

###

Assay: Dog PK study #3 (Compound A PO once daily 5 days, 5/10/20 mg/kg; PK, body weight, hematology)
Assay type: in vivo, beagle dogs
Details: male, beagle, dog, plasma, po, 10 mg/kg, Day 5, 10 mg/kg dose PO; mean; read-out: Cmax
Protocol: For the third dog pharmacokinetic study, three solutions of different concentrations of Compound A were prepared in 5% DMSO/15% PEG-400/80% (10% VE-TPGS) as outlined in Table 2E. […] Body weight was recorded prior to dosing, and detailed clinical observations were made prior to dosing and throughout the study, as needed. […] The concentration of Compound A in the blood plasma was determined through LC-MS as previously described. […] The cell composition (hematology) of blood samples was analyzed at day 5. […]
quantity_name: Cmax (ng/mL)
Form entry: value (ng/mL) — number only.

Entry Cn1cc(-c2ccccc2)c(-c2cn(C)c(=O)c3[nH]c(-c4cnn(C(F)(F)F)c4)cc23)cc1=O ; Cmax = 2260

###

Assay: Rat PK study #2 (Compound A PO 5 mg/kg, DMSO/PEG-400/water)
Assay type: in vivo, SD rats
Settings: male, SD, rat, plasma, po, 5 mg/kg, SD rats, PO 5 mg/kg, DMSO/PEG-400/Milli-Q water formulation, 1 h, mean of 3 animals
quantity_name: concentration at 1 h (ng/mL)
Quick note: give the figure in ng/mL, leave out the unit.

Lab note: Cn1cc(-c2ccccc2)c(-c2cn(C)c(=O)c3[nH]c(-c4cnn(C(F)(F)F)c4)cc23)cc1=O gave concentration at 1 h of 67

###

Biological target: BRD4 BD2 (Homo sapiens, UniProt O60885)
Construct: HEK293 cells were transfected using NanoLuc-BRD4-BD1 or NanoLuc-BRD4-BD2 fusion vectors
Test: NanoBRET bromodomain assay, NanoLuc-BRD4-BD2 in HEK293 cells
quantity_name: IC50

compound: Cc1cc(-c2cc3c(-c4cc(=O)n(C)cc4-c4ccccc4F)cn(C)c(=O)c3[nH]2)cc(C)n1.Cl
value_measured: < 10 nM

For this compound ( CN(C)CCn1cc(-c2ccccc2)c(-c2cn(C)c(=O)c3[nH]c(-c4cnn(C(F)(F)F)c4)cc23)cc1=O.O=CO [Example 61, formate] ), measured IC50 is < 10 nM

Just so you know, measured IC50 for Cn1cc(-c2ccccc2)c(-c2cn(C)c(=O)c3[nH]c(-c4cccn(C)c4=O)cc23)cc1=O came out at 10 to 50 nM

Per the record, COCCOc1cccc(-c2cn(C)c(=O)cc2-c2cn(C)c(=O)c3[nH]c(-c4cnn(C(C)C)c4)cc23)c1 has IC50 of 10 to 50 nM

###

Assay: Rat PK study #3 (ABBV-744 IV 1 mg/kg and PO 5 mg/kg)
Assay type: in vivo, SD rats
Conditions: male, Sprague-Dawley, rat, plasma, po, 5 mg/kg, SD rats, PO 5 mg/kg, DMSO/PEG-400/Milli-Q water formulation, mean of 3 animals
quantity_name: AUC(0-t) (ng·h/mL)
Write the number in ng·h/mL without appending the unit.

Sample CCNC(=O)c1cc2c(-c3cc(C(C)(C)O)ccc3Oc3c(C)cc(F)cc3C)cn(C)c(=O)c2[nH]1 ; AUC(0-t) observed: 1730
